test: qHTS of pediatric cancer cell lines to identify multiple opportunities for drug repurposing: Primary screen for BT-12 cells (AID 1347101); settings: BT-12 viability, CellTiter-Glo luminescence, 48 h; series mostly up to 57.3 µM; note: nearly all actives have a fitted effect of over 25% in size
Records with an inconclusive call do not appear. Active and inactive are the calls of the source. Calls come from the whole dose curve; as a rule, active = well fitted cell-killing curve with a large enough effect; inconclusive = small, poorly fitted or top-dose-only effect; inactive = flat fitted curve, though single readings scatter.
Your answer must be one of the following: TRUE = active, FALSE = inactive

Task: For this compound, state the assay outcome: CCCCCCCCCCCC1=C(O)C(=O)C=C(O)C1=O
Output: TRUE

Task: For this compound, state the assay outcome: CCN(CC)CCOC(=O)c1ccc(N)cc1
Output: FALSE

* * *

assay: MultiTox-Fluor Cytotoxicity Assay - LYMP1-003 - Live Cells (AID 962); conditions: LYMP1-003 lymphoblastoid cells, MultiTox-Fluor live-cell protease fluorescence; series mostly up to 92.2 µM;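 note: cells exposed to compound for 16 hours at 37 °C; cytotoxic hits lower the live-cell protease signal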
The source made the active and inactive calls. Calls follow the shape of the dose curve; as a rule, active = well fitted cell-killing curve with a large enough effect; inconclusive = small, poorly fitted or top-dose-only effect; inactive = flat fitted curve, though single readings scatter.
Metric: outcome

O=c1c(O)c(-c2ccc(O)cc2)oc2cc(O)cc(O)c12 = inactive
CC(=O)c1ccc(S(=O)(=O)NC(=O)NC2CCCCC2)cc1 = inactive
O=c1c(-c2ccc(O)cc2)coc2cc(O)ccc12 = inactive

Data provenance: PubChem BioAssay (NCATS)
